Data origin, for the record: the Human Domainome abundance scans (Beltran et al. 2025)

B1: Transcription factor SOX-4, residues 60 to 127; numbered along this chain, Q06945 (parent)
chain: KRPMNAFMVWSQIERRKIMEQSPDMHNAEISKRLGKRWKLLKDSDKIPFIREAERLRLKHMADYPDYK

Variants of: B1
procedure.text: abundance fitness (aPCA) (normalised: wild type 0, dead -1); higher = more abundant; growth selection in yeast, the domain comes from the species named
experimental.conditions: Homo sapiens
outcome.measure: abundance fitness
Please give only the number in your answer, with no unit.

Find the measured abundance fitness of E20Y and report it.
-0.88

Return abundance fitness (reported value) for this variant: R55E
-0.333

Kindly indicate its recorded abundance fitness. Item: K59S
-0.024

Return reported abundance fitness. Input variant: G35E
0.262

Output measured abundance fitness for this item: E52Q
-0.291

For the variant R57E , report abundance fitness.
-0.111

Tell me its abundance fitness given R37T as the entry.
-0.05

Look up and report measured abundance fitness for this entry: I47Y
-0.224

Check the records and state abundance fitness for H60E
0.053

Respond only with abundance fitness recorded for P65Y
-0.124

Note down abundance fitness recorded for R37N
0.101

Look up abundance fitness of K59H and report it.
-0.108

Hello, please tell me recorded abundance fitness for this one: A28L
-0.195

For the variant Q21P , give its reported abundance fitness.
-0.874

Supply recorded abundance fitness for K59M here.
-0.048

State, in one line, measured abundance fitness of E29I
-0.916

Give a short answer stating reported abundance fitness for S31F .
-0.212

Fill in reported abundance fitness for this entry: D45F
-0.39

Indicate its recorded abundance fitness; the variant in question is D24Q
-0.114

Give the measured abundance fitness for P23T
-0.593

Name the recorded abundance fitness of the item R33Y in your answer.
-0.218

Give me measured abundance fitness, please, for this variant: Y64R
0.035
